// data source = patent US12077503B2

Measured pest or weed control at 125 g/ha accompanies every entry in the list below.
Test system: Kochia (Kochia scoparia)
Method summary: Test A preemergence
Format: in vivo
Assay context: Bassia scoparia, pre-emergence, 240 h, 125 g ai/ha, preemergence; visual injury rating, 0 to 100 scale where 0 is no effect and 100 is complete control; approximately 10 d; read-out: Kochia plant response rating
From the text: […]
The response must be a number in % with no trailing unit.

# count of solved cases: 3
For Cc1cc([C@H]2CNC(=O)[C@@H]2C(=O)Nc2ccccc2S(C)(=O)=O)ccc1Cl , write its pest or weed control at 125 g/ha. 60

Identify measured pest or weed control at 125 g/ha associated with Cc1nc([C@H]2CN(C)C(=O)[C@@H]2C(=O)Nc2ccccc2F)cs1 0

Provide measured pest or weed control at 125 g/ha value, entry: Cc1cc(F)cc([C@H]2CNC(=O)[C@@H]2C(=O)Nc2ccccc2S(C)(=O)=O)c1 20

Next:
Specify reported pest or weed control at 125 g/ha for the compound shown: Cc1c(F)cccc1NC(=O)[C@H]1C(=O)N(C)C[C@@H]1c1ccc(C(F)F)cc1 80
